test: Toxicity liver stage against HepG2, at 10uM
Assay type: cell-based
Set-up: test concentration 10 uM, cell line HepG2-A16-CD81EGFP
condition-summary: human, HepG2-A16-CD81EGFP cells; read-out: INHIBITION
property-measured: cytotoxicity at 10 µM (%)
Enter your answer as a number in %; do not include the unit.

O=C(Nc1nnn[nH]1)c1ccc(-n2cccc2)c(F)c1 :: -1.63
CCc1cn[nH]c1C1CCN(c2cc(C)c3cc(OC)ccc3n2)CC1 :: 1.93
Cc1cccc(CN2CCCC3(CCN(c4cccnc4)C3=O)C2)n1 (stereo unspecified) :: -1.34
O=C(NCc1ccc(-n2cncn2)nc1)c1cnccn1 :: -5.18
Cc1nn(C)cc1-c1ccnc(N2CCN(c3cnccn3)CC2)n1 :: 7.26

Let's switch to this compound now.
Give cytotoxicity at 10 µM for CC1c2ncc(CNC(=O)C3CC3)n2CCN1CC1CCC1 (stereo unspecified)
-3.15

====

test: Toxicity liver stage against HepG2, at 10uM
Type: cell-based
Design: test concentration 10 uM, cell line HepG2-A16-CD81EGFP
condition-summary: human, HepG2-A16-CD81EGFP cells; read-out: INHIBITION
property-measured: cytotoxicity at 10 µM (%)
Enter your answer as a number in %; do not include the unit.

N#CCCN(CC(=O)Nc1ccc(Br)cc1Cl)Cc1cccnc1 :: 11

Give cytotoxicity at 10 µM for `CN(C)C(=O)CCCn1ccc(NCc2ccc(C#N)cc2)n1`
1.92

Give cytotoxicity at 10 µM for `O=C(c1cnc(-c2cccnc2)nc1)N1CCC(c2ccncc2)CC1`
-13.7

Give cytotoxicity at 10 µM for Cc1nc(-c2cccc(N3CCC(NC4CCSC4)CC3)c2)cs1 (stereo not drawn)
2.86

Give cytotoxicity at 10 µM for Cc1nc(CN2CCN(CC3CCOC3)Cc3cccnc32)cs1 (stereo not drawn)
11

Give cytotoxicity at 10 µM for `CCc1c(C(=O)Nc2ccc(F)c(C(=O)NC)c2)cnn1CC(C)C`
14.7

Give cytotoxicity at 10 µM for CN1CCCCCC1C(=O)N1CCCN(c2ccccc2)CC1 (stereo not drawn)
-6.56

====

test: Toxicity liver stage against HepG2, at 10uM
Format: cell-based
Design: test concentration 10 uM, cell line HepG2-A16-CD81EGFP
condition-summary: human, HepG2-A16-CD81EGFP cells; read-out: INHIBITION
Listed compounds paired with reported cytotoxicity at 10 µM
Enter your answer as a number in %; do not include the unit.

COc1ccc(CCCN(C)C(=O)c2cc(C(C)=O)c[nH]2)cc1OC :: 2.24
COc1ccc(CN2CCC3(CCCN(C)C3=O)C2)c(Cl)c1OC (stereo not drawn) :: -1.24
Fc1ccc(CN2CCCC(c3nnc(-c4cnccn4)o3)C2)cc1F (stereo not drawn) :: -8.03
Cc1ccc(CN2C[C@H](O)C[C@H]2c2nc(-c3ccc(F)cc3)no2)cc1 :: -0.456
CCN(CC)[C@H]1C[C@@H](Cc2cc(CO)on2)C1(C)C :: 9.12

Let's switch to this compound now.
Give cytotoxicity at 10 µM for O=C1NCCCCC1Sc1ccc(F)cc1F (stereo not drawn)
-8.01

====

test: Toxicity liver stage against HepG2, at 10uM
Type: cell-based
Design: test concentration 10 uM, cell line HepG2-A16-CD81EGFP
condition-summary: human, HepG2-A16-CD81EGFP cells; read-out: INHIBITION
property-measured: cytotoxicity at 10 µM (%)
Enter your answer as a number in %; do not include the unit.

Consider the reported cytotoxicity at 10 µM for these molecules:
Cc1cc2ncn(C(=O)N3CCCCC3)c2cc1C :: 10.3
Cc1ccc(CN(CCCN2CCOCC2)Cc2cnn(C)c2)o1 :: -1.06
Cc1ccc(OCCCNC(=O)C(C)Sc2nncn2C)cc1 (centres undefined) :: -45

Give cytotoxicity at 10 µM for CN(C)CCN(C)C1CCCN(C(=O)c2ccc(Cn3ccnc3)o2)C1 (centres undefined)
6.69

Give cytotoxicity at 10 µM for `CCSc1ccc(C(=O)NCCc2nnc(-c3ccco3)[nH]2)cn1`
10.7

Give cytotoxicity at 10 µM for COCC(C)(C)NS(=O)(=O)C1CS(=O)(=O)c2ccccc21 (centres undefined)
4.22

Give cytotoxicity at 10 µM for `Cc1noc(C2CCN(C(=O)Nc3ccc(N(C)C)nc3)CC2)n1`
-3.45

Give cytotoxicity at 10 µM for CCC1CN(C(=O)c2ccc(Cl)cc2O)CCN1C(C)C (centres undefined)
-15.5

Give cytotoxicity at 10 µM for N#Cc1cccc(S(=O)(=O)NC(=O)C2CC(c3ccccc3)=NO2)c1 (centres undefined)
1.85

Give cytotoxicity at 10 µM for CN(C)C(=O)c1cn[nH]c1C1CCCN1Cc1cncn1C (centres undefined)
-1.89

Give cytotoxicity at 10 µM for Cn1cncc1C(=O)N1CCCC(c2ccn[nH]2)C1 (centres undefined)
-4.78

Give cytotoxicity at 10 µM for `CC(C)c1cc2c(O)nc(CSCC(=O)NCc3ccncc3)nc2s1`
-6.18

Give cytotoxicity at 10 µM for `O=C(c1ccccc1)N1CCC2(CCCN2c2ncccn2)CC1`
-127

====

test: Toxicity liver stage against HepG2, at 10uM
Format: cell-based
Parameters: test concentration 10 uM, cell line HepG2-A16-CD81EGFP
condition-summary: human, HepG2-A16-CD81EGFP cells; read-out: INHIBITION
property-measured: cytotoxicity at 10 µM (%)
Enter your answer as a number in %; do not include the unit.

Consider the reported cytotoxicity at 10 µM for these compounds:
Cc1nc2ccccn2c1CN(Cc1cccnc1)CC1CCCO1 (configuration not stated) :: -7.1
COCC1CC2(CCN(C(=O)c3cnc4ccccc4c3)CC2)CO1 (configuration not stated) :: -142

Give cytotoxicity at 10 µM for `CCN(CC)S(=O)(=O)NC1CCN(c2ccc(OC)cc2)CC1`
3.38

Give cytotoxicity at 10 µM for `CC(C)c1csc(C(=O)N(C)c2ccc(Br)cn2)n1`
3.33

Give cytotoxicity at 10 µM for `Cc1nn(C)c(N(C)C)c1CNCc1cccc(Cn2ccnc2)c1`
-12

Give cytotoxicity at 10 µM for CN(C)c1cc(C(=O)N2CCCC2c2cnn(C)c2)ccn1 (configuration not stated)
-1.39

====

test: Toxicity liver stage against HepG2, at 10uM
Format: cell-based
Set-up: test concentration 10 uM, cell line HepG2-A16-CD81EGFP
condition-summary: human, HepG2-A16-CD81EGFP cells; read-out: INHIBITION
Listed compounds paired with reported cytotoxicity at 10 µM
Enter your answer as a number in %; do not include the unit.

Cc1ncncc1C(=O)N1CCOC(C(=O)NC2CCCC2)C1 (configuration not stated) :: -4.23
CC(C)c1nc(C2CCCN(C(=O)CCCn3cncn3)C2)no1 (configuration not stated) :: -3.29
CC(NC(=O)c1cccc(CCC(C)(C)O)c1)c1nnc(N)s1 (configuration not stated) :: 1.16
COc1ccc(CN2CCn3c(CO)nnc3C2)cc1CN1CCCC1 :: -24.5
Cn1cccc1C(=O)NCc1cnc2n1CCN(C(=O)c1ccoc1)C2 :: 11.9
Cc1ccc(=O)n(CC2(O)CCN(Cc3cnc(N(C)C)nc3)CC2)n1 :: -26

Give cytotoxicity at 10 µM for `Cc1c(C(=O)N[C@H]2CN(CCS(C)(=O)=O)C[C@@H]2C2CC2)cnn1C`
7.02

Give cytotoxicity at 10 µM for CCCN(CCS(C)(=O)=O)C1CCc2ccccc2C1 (configuration not stated)
-5.08

Give cytotoxicity at 10 µM for Cn1cccc1C(O)CNC(=O)c1cccc(Cl)c1 (configuration not stated)
-1.94

Give cytotoxicity at 10 µM for COc1ccc2c(c1)C(=O)NC1(CC2)CCN(Cc2cccnc2)C1 (configuration not stated)
0.295

Give cytotoxicity at 10 µM for `O=C(CNC(=O)c1c(F)cccc1Cl)Nc1ccc(F)cn1`
8.46

Give cytotoxicity at 10 µM for CCOC(C)c1noc(CN(C)C(=O)c2ccncc2)n1 (configuration not stated)
14.5

====

test: Toxicity liver stage against HepG2, at 10uM
Type: cell-based
Parameters: test concentration 10 uM, cell line HepG2-A16-CD81EGFP
condition-summary: human, HepG2-A16-CD81EGFP cells; read-out: INHIBITION
property-measured: cytotoxicity at 10 µM (%)
Enter your answer as a number in %; do not include the unit.

CN(C)CC1(O)CCN(C(=O)Cc2ccc3c(c2)CCC3)C1 (stereo unspecified) :: -7.84
CC(=O)N1CCC(C(=O)N(C)[C@@H]2CCC[C@@H](N3CCCC3)[C@@H]2O)CC1 :: -0.156
CC(C)(C)C(=O)N1CCC(n2nc(-c3ccco3)ccc2=O)CC1 :: -15.4
CC(=O)N1CCC(NC(=O)c2ccccc2-n2cnnn2)CC1 :: 6.87
O=C(c1ccoc1)N1CCn2cnc(COCC3CC3)c2C1 :: -71.9
COc1ccccc1CN(Cc1nc(C)no1)C1CC1 :: 2.77
Cc1cc(C)c(CNC(=O)NC2CCN(C(=O)C(C)C)CC2)c(C)c1 :: 9.46
CC(C)CCNC(=O)CCc1ccnc2ccccc12 :: -0.69
Cc1nccn1-c1ccc(C(C)NCc2ncc[nH]2)cc1 (stereo unspecified) :: 1.91
Cc1cc(NCC2CCS(=O)(=O)C2)n2nc(C)cc2n1 (stereo unspecified) :: 1.41

Let's switch to this compound now.
Give cytotoxicity at 10 µM for `CC(=O)N1CCC(c2c(CN(C)C)cnc3cc(C)nn23)CC1`
2.54
